organism: Rattus norvegicus; assay: Open TG-GATES - Regimen: Daily Repeat; type: toxicity, organism-based, Sprague-Dawley; design: regimen Daily Repeat, gender Male, age 6 weeks; settings: in vivo, po, 1000 mg/kg, […], tissue Plasma, route gavage, dose level High, time 28 day
OBSERVED PROPERTY: LDH (IU/L)
Give just the numeric value; IU/L need not be written.

Look at this molecule and give its reported LDH. CCCCNC(=O)NS(=O)(=O)c1ccc(C)cc1 [TOLBUTAMIDE]
53.5

// repeat for CC(=O)[C@@]1(O)CC[C@H]2[C@@H]3C=C(Cl)C4=CC(=O)CC[C@]4(C)[C@H]3CC[C@@]21C [CHLORMADINONE] and report
156

One more molecule: CC(S)C(=O)NCC(=O)O (centres undefined) [TIOPRONIN]
154.6

Further, for O=C(O)c1ccccc1Nc1ccccc1 [FENAMIC ACID] ?
155.5
